Reference for the values: patent EP4471049A1

Entries and their pIC50
Sequence of the target: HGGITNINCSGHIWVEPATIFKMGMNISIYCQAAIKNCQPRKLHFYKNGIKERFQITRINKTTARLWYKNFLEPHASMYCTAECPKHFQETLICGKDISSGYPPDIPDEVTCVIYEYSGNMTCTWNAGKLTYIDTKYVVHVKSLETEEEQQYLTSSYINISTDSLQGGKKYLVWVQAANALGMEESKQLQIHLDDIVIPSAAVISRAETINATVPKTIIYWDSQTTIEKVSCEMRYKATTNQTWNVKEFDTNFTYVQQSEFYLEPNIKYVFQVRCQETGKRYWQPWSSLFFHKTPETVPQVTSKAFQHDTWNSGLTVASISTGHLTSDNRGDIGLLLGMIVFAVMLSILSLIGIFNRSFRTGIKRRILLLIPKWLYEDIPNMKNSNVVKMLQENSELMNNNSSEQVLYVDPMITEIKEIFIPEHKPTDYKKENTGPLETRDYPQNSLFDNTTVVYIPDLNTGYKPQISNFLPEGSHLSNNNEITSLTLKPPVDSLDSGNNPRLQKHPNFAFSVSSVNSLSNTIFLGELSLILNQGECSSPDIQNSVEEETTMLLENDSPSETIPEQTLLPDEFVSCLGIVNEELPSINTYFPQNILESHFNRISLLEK
Convention used: pIC50 is expressed as -log10 of the molar concentration.

CNC(=O)[C@H](Cc1cccnc1)NC(=O)[C@H](CCN)NC(=O)[C@@H]1CCC(=O)NCc2ccc(cc2)CC(=O)N[C@@H](C)C(=O)N[C@H]2CCC(=O)NCC[C@H](NC(=O)[C@H](CCC(N)=O)NC(=O)[C@H](Cc3c[nH]c4ccccc34)NC2=O)C(=O)N[C@@H](Cc2ccc(OCCN)cc2)C(=O)N[C@@H](Cc2c[nH]c3ccccc23)CC(=O)NC(C)(C)C(=O)N1 7.24
CNC(=O)[C@H](Cc1cccnc1)NC(=O)[C@@H](CO)NC(=O)[C@@H]1CCC(=O)NCc2ccc(cc2)CC(=O)N[C@@H](CO)C(=O)N[C@H]2CCC(=O)NCC[C@H](NC(=O)[C@H](CCC(N)=O)NC(=O)[C@H](Cc3c[nH]c4ccccc34)NC2=O)C(=O)N[C@@H](Cc2ccc(OCCN)cc2)C(=O)N[C@@H](Cc2ccc3ccccc3c2)C(=O)N[C@@](C)(CC(C)C)C(=O)N1 10.18

Now for the molecule whose pIC50 we want.
Problem: Given `CC(C)C[C@]1(C)NC(=O)[C@H](Cc2ccc3ccccc3c2)NC(=O)[C@H](Cc2ccc(OCCN)cc2)NC(=O)[C@@H]2CCNC(=O)CC[C@H](NC(=O)[C@H](CO)NC(=O)Cc3ccc(cc3)CNC(=O)CC[C@@H](C(=O)NC[C@@H](N[C@@H](Cc3cccnc3)C(N)=O)C(F)(F)F)NC1=O)C(=O)N[C@@H](Cc1c[nH]c3ccccc13)C(=O)N[C@@H](CCC(N)=O)C(=O)N2` , state its recorded pIC50.
Result: 9.89

---

Test Target: human IL-23R (Homo sapiens, UniProt Q5VWK5)
Assay Details: biochemical
Recorded Conditions: read-out: % displacement (hIL-23R binding)
*1 amine or outer side, *2 acyl side, *3 side chain or, on linkers, in order; H or OH if unused. Where a SMILES comes first, the peptide text is derived from it. Bridges are numbered along the chain shown (N, C = ends). [ ]: non-standard residue; d: D form. 2Nal = N[C@@H](Cc1ccc2ccccc2c1)C(=O)O; AEF = NCCOc1ccc(C[C@H](N)C(=O)O)cc1; X1 = O=C(Cc1ccc(CN[*:1])cc1)[*:2]; 3Pal = N[C@@H](Cc1cccnc1)C(=O)O; αMeL = CC(C)C[C@](C)(N)C(=O)O; Dab = NCC[C@H](N)C(=O)O
Assay Readout: Emax (%)
// units = %; emit number, no label

Compound	Emax / %
CNC(=O)[C@H](Cc1cccnc1)NC(=O)[C@H](CCN)NC(=O)[C@@H]1CCC(=O)NCc2ccc(cc2)CC(=O)N[C@@H](Cc2ccccc2)C(=O)N[C@H]2CCC(=O)NCC[C@H](NC(=O)[C@H](CCC(N)=O)NC(=O)[C@H](Cc3c[nH]c4ccccc34)NC2=O)C(=O)N[C@@H](Cc2ccc(OCCN)cc2)C(=O)N[C@@H](Cc2ccc3ccccc3c2)C(=O)N[C@@](C)(CC(C)C)C(=O)N1 [Compound 21] ([X1]FEWQ[Dab][AEF][2Nal][αMeL]E[Dab][3Pal]-NHMe; lactam 3-6, N-10)	95

Now for the compound whose Emax we want.
Problem: Notebook: pull reported Emax for human IL-23R (Homo sapiens, UniProt Q5VWK5), entry CNC(=O)[C@H](Cc1cccnc1)NC(=O)[C@H](CCN)NC(=O)[C@@H]1CCC(=O)NCc2ccc(cc2)CC(=O)N[C@@H](CO)C(=O)N[C@H]2CCC(=O)NCC[C@H](NC(=O)[C@H](C)NC(=O)[C@H](Cc3c[nH]c4ccccc34)NC2=O)C(=O)N[C@@H](Cc2ccc(OCCN)cc2)C(=O)N[C@@H](Cc2ccc3ccccc3c2)C(=O)N[C@@](C)(CC(C)C)C(=O)N1 [Compound 22] ([X1]SEWA[Dab][AEF][2Nal][αMeL]E[Dab][3Pal]-NHMe; lactam 3-6, N-10)
Result: 96

---

Test Target: human IL-23R (Homo sapiens, UniProt Q5VWK5)
Sequence (Q5VWK5 22-629): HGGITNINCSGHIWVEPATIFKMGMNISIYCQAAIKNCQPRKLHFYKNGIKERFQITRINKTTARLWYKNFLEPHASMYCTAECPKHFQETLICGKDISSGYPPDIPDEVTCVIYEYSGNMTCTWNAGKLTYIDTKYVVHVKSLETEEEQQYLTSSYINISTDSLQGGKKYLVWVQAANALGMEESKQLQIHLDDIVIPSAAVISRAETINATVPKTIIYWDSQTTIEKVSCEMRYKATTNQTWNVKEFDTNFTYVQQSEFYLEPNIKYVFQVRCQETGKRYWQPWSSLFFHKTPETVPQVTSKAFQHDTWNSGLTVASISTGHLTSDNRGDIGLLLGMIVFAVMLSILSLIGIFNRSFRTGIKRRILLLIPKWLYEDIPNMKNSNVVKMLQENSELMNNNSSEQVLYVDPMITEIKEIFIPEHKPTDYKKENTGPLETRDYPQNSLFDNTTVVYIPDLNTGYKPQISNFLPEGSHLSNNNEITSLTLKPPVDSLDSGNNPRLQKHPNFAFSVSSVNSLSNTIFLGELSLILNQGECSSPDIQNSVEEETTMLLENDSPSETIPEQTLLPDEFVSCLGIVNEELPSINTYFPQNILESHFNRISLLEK
Assay Details: biochemical
*1 amine or outer side, *2 acyl side, *3 side chain or, on linkers, in order; H or OH if unused. Where a SMILES comes first, the peptide text is derived from it. Bridges are numbered along the chain shown (N, C = ends). [ ]: non-standard residue; d: D form. 2Nal = N[C@@H](Cc1ccc2ccccc2c1)C(=O)O; AEF = NCCOc1ccc(C[C@H](N)C(=O)O)cc1; X1 = O=C(Cc1ccc(CN[*:1])cc1)[*:2]; 3Pal = N[C@@H](Cc1cccnc1)C(=O)O; αMeL = CC(C)C[C@](C)(N)C(=O)O; Dab = NCC[C@H](N)C(=O)O
Entries and their % displacement (hIL-23R binding)
// units = %; emit number, no label

Solved cases (4 shown):
Molecule	% displacement (hIL-23R binding) / %
CC(C)C[C@]1(C)NC(=O)[C@H](Cc2ccc3ccccc3c2)NC(=O)[C@H](Cc2ccc(OCCN)cc2)NC(=O)[C@@H]2CCNC(=O)CC[C@H](NC(=O)[C@H](CO)NC(=O)Cc3ccc(cc3)CNC(=O)CC[C@@H](C(=O)NC[C@H](N[C@@H](Cc3cccnc3)C(N)=O)C(F)(F)F)NC1=O)C(=O)N[C@@H](Cc1c[nH]c3ccccc13)C(=O)N[C@@H](CCC(N)=O)C(=O)N2	98
CNC(=O)[C@H](Cc1cccnc1)NC(=O)[C@H](CO)NC(=O)[C@@H]1CCC(=O)NCc2ccc(cc2)CC(=O)N[C@@H](CO)C(=O)N[C@H]2CCC(=O)NCC[C@H](NC(=O)[C@H](CCC(N)=O)NC(=O)[C@H](Cc3c[nH]c4ccccc34)NC2=O)C(=O)N[C@@H](Cc2ccc(OCCN)cc2)C(=O)N[C@@H](Cc2ccc3ccccc3c2)C(=O)N[C@@](C)(CC(C)C)C(=O)N1 [Compound 31] ([X1]SEWQ[Dab][AEF][2Nal][αMeL]ES[3Pal]-NHMe; lactam 3-6, N-10)	97
CC(C)C[C@]1(C)NC(=O)[C@H](Cc2ccc3ccccc3c2)NC(=O)[C@H](Cc2ccc(OCCN)cc2)NC(=O)[C@@H]2CCNC(=O)CC[C@H](NC(=O)[C@H](CO)NC(=O)Cc3ccc(cc3)CNC(=O)CC[C@@H](C(=O)N[C@@H](CCN)C(=O)N[C@@H](Cc3c[nH]cn3)C(=O)N[C@@H](Cc3cccnc3)C(N)=O)NC1=O)C(=O)N[C@@H](Cc1c[nH]c3ccccc13)C(=O)N[C@@H](CCC(N)=O)C(=O)N2 [Compound 12] ([X1]SEWQ[Dab][AEF][2Nal][αMeL]E[Dab]H[3Pal]-NH2; lactam 3-6, N-10)	104
CCCC[C@H](NC(=O)[C@@H]1CCC(=O)NCc2ccc(cc2)CC(=O)N[C@@H](CO)C(=O)N[C@H]2CCC(=O)NCC[C@H](NC(=O)[C@H](CCC(N)=O)NC(=O)[C@H](Cc3c[nH]c4ccccc34)NC2=O)C(=O)N[C@@H](Cc2ccc(OCCN)cc2)C(=O)N[C@@H](Cc2ccc3ccccc3c2)C(=O)N[C@@](C)(CC(C)C)C(=O)N1)C(=O)N[C@@H](Cc1cccnc1)C(=O)NC	98

Now for the molecule whose % displacement (hIL-23R binding) we want.
Problem: Given `CC(C)C[C@]1(C)NC(=O)[C@H](Cc2ccc3ccccc3c2)NC(=O)[C@H](Cc2ccc(OCCN)cc2)NC(=O)[C@@H]2CCNC(=O)CC[C@H](NC(=O)[C@H](CO)NC(=O)Cc3ccc(cc3)CNC(=O)CC[C@@H](C(=O)N[C@@H](CCN)C(=O)N[C@H](Cc3cccnc3)C(N)=O)NC1=O)C(=O)N[C@@H](Cc1c[nH]c3ccccc13)C(=O)N[C@@H](CCC(N)=O)C(=O)N2` , state its recorded % displacement (hIL-23R binding).
Result: 99
